- TARGET_OR_TEST_SYSTEM: C-terminal region of human ALK ECD (T637-S1038) (Homo sapiens, UniProt Q9UM73)
- Sequence (Q9UM73 19-1620): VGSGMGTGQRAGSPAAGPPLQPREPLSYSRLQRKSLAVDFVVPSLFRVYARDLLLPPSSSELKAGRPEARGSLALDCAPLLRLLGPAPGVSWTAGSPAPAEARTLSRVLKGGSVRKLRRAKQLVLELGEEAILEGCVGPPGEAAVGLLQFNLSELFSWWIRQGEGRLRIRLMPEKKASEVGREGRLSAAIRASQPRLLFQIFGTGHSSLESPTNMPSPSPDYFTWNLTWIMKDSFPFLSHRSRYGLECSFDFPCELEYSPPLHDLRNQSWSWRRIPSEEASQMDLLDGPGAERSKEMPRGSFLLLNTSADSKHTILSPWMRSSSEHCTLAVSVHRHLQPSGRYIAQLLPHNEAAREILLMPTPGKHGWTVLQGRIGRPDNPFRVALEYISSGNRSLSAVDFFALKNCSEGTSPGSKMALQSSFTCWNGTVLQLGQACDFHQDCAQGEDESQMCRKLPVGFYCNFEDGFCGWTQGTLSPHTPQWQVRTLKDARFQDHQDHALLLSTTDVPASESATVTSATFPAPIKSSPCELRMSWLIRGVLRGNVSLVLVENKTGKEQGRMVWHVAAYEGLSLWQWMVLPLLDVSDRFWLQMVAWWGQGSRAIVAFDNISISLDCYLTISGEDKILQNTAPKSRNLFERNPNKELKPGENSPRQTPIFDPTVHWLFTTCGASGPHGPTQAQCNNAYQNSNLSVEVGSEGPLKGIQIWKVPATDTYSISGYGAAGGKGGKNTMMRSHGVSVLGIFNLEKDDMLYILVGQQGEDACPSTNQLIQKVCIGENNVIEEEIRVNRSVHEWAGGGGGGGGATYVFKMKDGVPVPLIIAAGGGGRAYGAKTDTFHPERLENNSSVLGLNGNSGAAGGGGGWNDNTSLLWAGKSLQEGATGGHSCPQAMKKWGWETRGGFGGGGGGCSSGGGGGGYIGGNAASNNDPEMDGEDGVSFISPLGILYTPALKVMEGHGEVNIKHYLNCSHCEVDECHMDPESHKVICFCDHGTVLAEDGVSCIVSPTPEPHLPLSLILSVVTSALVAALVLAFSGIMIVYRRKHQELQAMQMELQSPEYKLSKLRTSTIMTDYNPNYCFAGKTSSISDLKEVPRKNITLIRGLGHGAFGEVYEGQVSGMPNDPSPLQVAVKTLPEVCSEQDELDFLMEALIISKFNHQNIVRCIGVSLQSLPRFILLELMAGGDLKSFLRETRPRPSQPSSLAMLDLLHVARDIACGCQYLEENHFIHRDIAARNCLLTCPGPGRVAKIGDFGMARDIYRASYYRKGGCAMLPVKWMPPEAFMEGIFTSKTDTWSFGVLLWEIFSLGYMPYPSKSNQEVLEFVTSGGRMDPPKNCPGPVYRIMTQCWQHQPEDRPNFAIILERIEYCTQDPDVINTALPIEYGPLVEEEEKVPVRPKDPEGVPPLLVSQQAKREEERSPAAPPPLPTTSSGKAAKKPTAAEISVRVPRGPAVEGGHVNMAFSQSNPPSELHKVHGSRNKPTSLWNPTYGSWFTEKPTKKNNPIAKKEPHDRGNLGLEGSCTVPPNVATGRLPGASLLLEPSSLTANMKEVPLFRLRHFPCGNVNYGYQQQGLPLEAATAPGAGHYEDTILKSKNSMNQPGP
- TEST_NAME: Competitive binding assay (epitope binning) by flow cytometry
- DETAILS: antibodies to the C-terminal region
REPORTED_PROPERTY: Bin/Domain (bin)
# output: bare number, no unit

Which Bin/Domain (bin) value is on record for Ab322: anti-ALK monoclonal antibody; VL SEQ ID NO: 399, VH SEQ ID NO: 400 (antibody, V domains shown, VH domain - Ab322; VL domain - Ab322) VH: QVQLQQSGAELAKPGASVKLSCKASGYTFTNYWMHWVKQRPGQGLEWIGYINPSSGYTKYNQKFKDKATLTADKSSSTAYMQLSSLTYEDSAVYYCARDYYGSSSWFAYWGQGTLVTVSA VL: DIVMTQSQRFMSTSVGDRVSVTCKASQNVGTNVAWYQQKPGQSPKALIYSASYRYSGVPDRFTGSGSGTDFTLTVSNVQSEDLAEYFCQQYNSYPYMYTFGGGTKLEIKR ?
2
